Data origin, for the record: patent US20070276025A1

Documented pIC50 across a set of compounds
# TARGET OF ASSAY: CDK4/cyclin D1 (Homo sapiens)
# Sequence (P11802 whole entry, species assumed): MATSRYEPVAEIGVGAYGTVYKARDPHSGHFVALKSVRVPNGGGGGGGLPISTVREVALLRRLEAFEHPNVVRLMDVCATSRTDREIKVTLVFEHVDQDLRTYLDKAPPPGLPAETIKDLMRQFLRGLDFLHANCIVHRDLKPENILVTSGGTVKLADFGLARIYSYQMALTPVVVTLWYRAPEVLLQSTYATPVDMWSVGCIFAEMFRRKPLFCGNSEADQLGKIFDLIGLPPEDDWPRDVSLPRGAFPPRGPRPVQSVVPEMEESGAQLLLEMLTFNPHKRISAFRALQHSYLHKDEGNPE
# Sequence (P24385 whole entry partner, species assumed): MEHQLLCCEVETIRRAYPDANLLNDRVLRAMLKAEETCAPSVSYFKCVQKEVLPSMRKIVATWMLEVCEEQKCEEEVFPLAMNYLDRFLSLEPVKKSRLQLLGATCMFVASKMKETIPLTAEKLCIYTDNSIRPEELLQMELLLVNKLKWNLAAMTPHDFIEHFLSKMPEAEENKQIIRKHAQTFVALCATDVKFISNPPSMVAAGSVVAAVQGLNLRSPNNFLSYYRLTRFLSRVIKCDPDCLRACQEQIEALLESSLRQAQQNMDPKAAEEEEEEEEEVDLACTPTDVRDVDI
# PROTOCOL TEXT: CDK4/cyclin D1 kinase assay
# CONDITION SUMMARY: read-out: IC50 CDK4/cyclin D1; Table 2, 15 μM ATP
pIC50: −log10 of the molar value.

| COMPOUND STRING | TARGET OF ASSAY | pIC50 |
| --- | --- | --- |
| CC(=O)ON=C1C(=C2C(=O)Nc3cc(Br)ccc32)Nc2ccccc21 | CDK4/cyclin D1 (Homo sapiens) | < 5.00 |
| CON=C1C(=C2C(=O)Nc3cc(Br)ccc32)Nc2ccccc21 | CDK4/cyclin D1 (Homo sapiens) | < 5.00 |

====

# TARGET OF ASSAY: CDK5/p25 (Homo sapiens)
# PROTOCOL TEXT: CDK5/p25 kinase assay (histone H1, 15 μM ATP)
# Format: biochemical, mammalian
# CONDITION SUMMARY: Table 5; read-out: IC50 CDK5/p25
Measured IC50 by item

| COMPOUND | MEASURE UNIT | COMPARATIVE SIGN | IC50 |
| --- | --- | --- | --- |
| CC(=O)O/N=C1/C(=C2/C(=O)Nc3cc(Cl)ccc32)Nc2ccccc21 | nM | = | 200 |
| CC(=O)O/N=C1/C(=C2/C(=O)Nc3cc(I)ccc32)Nc2ccccc21 | nM | = | 1300 |
| O=C1Nc2cc(I)ccc2/C1=C1/Nc2ccccc2C1=O | nM | = | 5300 |
| O=C1Nc2cc(F)ccc2/C1=C1/Nc2ccccc2C1=O | nM | = | 1000 |
| CN1C(=O)C(=C2Nc3ccccc3C2=NO)c2ccc(Br)cc21 [13c, 6-Bromo-1-methylindirubin-3′-oxime] | nM | > | 100000 |
| C=Cc1ccc2c(c1)NC(=O)/C2=C1\Nc2ccccc2C1=O | nM | = | 2400 |
| C=Cc1ccc2c(c1)NC(=O)C2=C1Nc2ccccc2C1=NO | nM | = | 420 |
| O=C1Nc2cc(Br)ccc2C1=C1Nc2cc(Br)ccc2C1=NO [13b, 6,6′-dibromo-indirubin-3′-oxime] | nM | = | 1300 |
| Cc1cc2c(cc1Br)NC(=O)C2=C1Nc2ccccc2C1=NO | nM | = | 130 |
| CC(=O)ON=C1C(=C2C(=O)Nc3cc(Br)c(C)cc32)Nc2ccccc21 | nM | = | 30000 |
| O=C1Nc2cc(I)ccc2C1=C1Nc2ccccc2C1=NO | nM | = | 300 |
| CN1C(=O)C(=C2Nc3ccccc3C2=O)c2ccc(Br)cc21 [12c, 6-Bromo-1-methylindirubin] | nM | > | 100000 |
| O=C1Nc2cc(Br)c([N+](=O)[O-])cc2C1=C1Nc2ccccc2C1=NO | nM | = | 150 |
| CN1C(=O)/C(=C2\Nc3ccccc3C2=O)c2ccccc21 [12d, 1-Methylindirubin] | nM | > | 100000 |

====

Listed here: items and their measured pIC50.
# TARGET OF ASSAY: CDK1/cyclin B
# PROTOCOL TEXT: CDK1/cyclin B kinase assay (histone H1, 15 μM ATP)
# Format: biochemical, starfish (Marthasterias glacialis)
# CONDITION SUMMARY: Table 2, 15 μM ATP; read-out: IC50 CDK1/cyclin B
pIC50: −log10 of the molar value.

| COMPOUND STRING | pIC50 |
| --- | --- |
| CON=C1C(=C2C(=O)Nc3cc(Br)ccc32)Nc2ccccc21 | 5.47 |
| CC(=O)ON=C1C(=C2C(=O)Nc3cc(Br)ccc32)Nc2ccccc21 | 4.20 |

====

pEC50: −log10 of the molar value.
AhR (Homo sapiens, UniProt P35869): recorded pEC50 for assorted compounds
Sequence (P35869 11-848): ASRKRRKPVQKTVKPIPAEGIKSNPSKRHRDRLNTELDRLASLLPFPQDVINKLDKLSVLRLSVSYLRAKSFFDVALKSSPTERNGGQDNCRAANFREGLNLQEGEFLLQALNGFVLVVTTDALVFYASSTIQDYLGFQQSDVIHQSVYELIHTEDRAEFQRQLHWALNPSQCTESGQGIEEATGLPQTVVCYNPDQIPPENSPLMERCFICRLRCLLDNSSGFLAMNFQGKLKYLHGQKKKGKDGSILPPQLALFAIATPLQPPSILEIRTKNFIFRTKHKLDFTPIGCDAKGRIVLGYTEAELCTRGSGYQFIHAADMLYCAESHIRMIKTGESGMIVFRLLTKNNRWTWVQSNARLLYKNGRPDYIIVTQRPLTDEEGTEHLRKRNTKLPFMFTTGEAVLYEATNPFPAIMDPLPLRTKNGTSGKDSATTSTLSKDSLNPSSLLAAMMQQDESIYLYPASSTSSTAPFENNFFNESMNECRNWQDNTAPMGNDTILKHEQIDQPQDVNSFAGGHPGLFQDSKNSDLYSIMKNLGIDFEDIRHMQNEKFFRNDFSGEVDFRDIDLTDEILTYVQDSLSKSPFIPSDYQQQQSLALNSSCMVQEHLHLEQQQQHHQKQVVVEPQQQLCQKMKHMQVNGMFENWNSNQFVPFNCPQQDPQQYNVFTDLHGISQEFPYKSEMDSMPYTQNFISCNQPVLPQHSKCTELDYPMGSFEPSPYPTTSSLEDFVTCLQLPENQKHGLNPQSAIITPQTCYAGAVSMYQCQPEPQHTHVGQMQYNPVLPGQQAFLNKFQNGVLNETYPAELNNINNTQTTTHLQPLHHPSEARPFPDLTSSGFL
Sequence (P27540 whole entry partner): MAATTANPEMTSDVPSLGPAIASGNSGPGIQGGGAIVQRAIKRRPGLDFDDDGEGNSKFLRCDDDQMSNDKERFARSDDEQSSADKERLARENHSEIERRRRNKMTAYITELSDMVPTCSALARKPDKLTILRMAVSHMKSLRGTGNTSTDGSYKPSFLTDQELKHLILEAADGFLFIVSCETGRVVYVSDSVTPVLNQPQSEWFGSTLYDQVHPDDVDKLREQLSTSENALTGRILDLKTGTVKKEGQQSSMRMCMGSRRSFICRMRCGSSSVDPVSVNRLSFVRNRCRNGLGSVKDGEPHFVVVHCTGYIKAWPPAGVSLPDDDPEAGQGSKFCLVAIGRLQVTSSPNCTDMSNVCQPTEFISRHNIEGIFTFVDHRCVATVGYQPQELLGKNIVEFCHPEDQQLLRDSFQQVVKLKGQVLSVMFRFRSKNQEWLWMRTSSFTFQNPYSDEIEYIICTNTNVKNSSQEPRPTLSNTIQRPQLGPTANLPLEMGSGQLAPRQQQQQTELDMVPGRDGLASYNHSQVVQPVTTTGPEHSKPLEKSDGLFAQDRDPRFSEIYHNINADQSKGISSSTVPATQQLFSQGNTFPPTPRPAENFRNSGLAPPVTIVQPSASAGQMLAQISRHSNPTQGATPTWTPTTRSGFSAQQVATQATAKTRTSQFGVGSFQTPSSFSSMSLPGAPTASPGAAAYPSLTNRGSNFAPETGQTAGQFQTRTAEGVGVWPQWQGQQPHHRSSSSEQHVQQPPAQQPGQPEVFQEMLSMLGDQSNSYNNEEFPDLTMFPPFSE

| COMPOUND | pEC50 |
| --- | --- |
| O=C1Nc2ccccc2/C1=C1/Nc2ccc(Br)cc2C1=O [compound 20, 5′-bromo-indirubin, reference compound] | ≤ 7.00 |
| CC(=O)ON=C1C(=C2C(=O)Nc3cc(Br)ccc32)Nc2ccccc21 | ≤ 7.00 |
| O=C1Nc2ccc(Br)cc2/C1=C1/Nc2ccc(Br)cc2C1=O [compound 21, 5,5′-dibromo-indirubin, reference compound] | < 6.70 |

====

pEC50 values for the compounds below.
# TARGET OF ASSAY: AhR (Homo sapiens)
# PROTOCOL TEXT: Yeast AhR reporter assay (β-galactosidase)
# CONDITION SUMMARY: read-out: EC50 AhR (yeast); Table 4; * = inactive at the indicated highest concentration tested
pEC50: −log10 of the molar value.

| COMPOUND | COMPARATIVE SIGN | pEC50 |
| --- | --- | --- |
| CON=C1C(=C2C(=O)Nc3cc(Br)ccc32)Nc2ccccc21 | < | 7.00 |
| O=C1Nc2cccc(Cl)c2/C1=C1/Nc2ccccc2C1=O | < | 7.00 |
| O=C1Nc2cc(Cl)ccc2C1=C1Nc2ccccc2C1=NO | = | 8.40 |
| O=C1Nc2cc(I)ccc2C1=C1Nc2ccccc2C1=NO | < | 7.00 |
| CN1C(=O)/C(=C2\Nc3ccccc3C2=O)c2ccccc21 [12d, 1-Methylindirubin] | = | 8.22 |
| CN1C(=O)C(=C2Nc3ccccc3C2=O)c2ccc(Br)cc21 [12c, 6-Bromo-1-methylindirubin] | ≤ | 7.00 |
| O=C1Nc2ccccc2/C1=C1/Nc2ccccc2/C1=N\O | = | 7.60 |
| O=C1Nc2cc(I)ccc2/C1=C1/Nc2ccccc2C1=O | = | 7.40 |

====

# TARGET OF ASSAY: CDK1/cyclin B
# PROTOCOL TEXT: CDK1/cyclin B kinase assay (histone H1, 15 μM ATP)
# Type: biochemical, starfish (Marthasterias glacialis)
# CONDITION SUMMARY: Table 4; read-out: IC50 CDK1/cycin B

| MOLECULE | COMPARATIVE SIGN | IC50 (µM) |
| --- | --- | --- |
| O=C1Nc2cc(Br)ccc2/C1=C1/Nc2cc(Br)ccc2C1=O [12b, 6,6′-Dibromoindirubin] | > | 100 |
| O=C1Nc2ccc(I)cc2/C1=C1/Nc2ccccc2/C1=N\O [compound 19, 5-iodo-indirubin-3′-oxime, reference compound] | = | 0.025 |
| Clc1cc2c(cc1Cl)Oc1cc(Cl)c(Cl)cc1O2 [compound 25, 2,3,7,8-tetrachlorodibenzo-p-dioxin, reference compound] | > | 15 |
| CON=C1C(=C2C(=O)Nc3cc(Br)ccc32)Nc2ccccc21 [9a, 6-Bromoindirubin-3′-methoxime] | = | 3.4 |
| O=C1Nc2ccccc2/C1=C1/Nc2cc(Br)ccc2C1=O [12a, 6′-Bromoindirubin] | > | 100 |
| CN1C(=O)C(=C2Nc3ccccc3C2=NO)c2ccccc21 [13d, 1-Methylindirubin-3′-oxime] | = | 73 |
| O=C1Nc2ccc(Br)cc2/C1=C1/Nc2ccccc2C1=O [compound 16, 5-bromo-indirubin, reference compound] | = | 0.23 |
| O=C1Nc2ccc(Br)cc2/C1=C1/Nc2ccc(Br)cc2C1=O [compound 21, 5,5′-dibromo-indirubin, reference compound] | = | 600 |
| O=C1Nc2ccc(Cl)cc2/C1=C1/Nc2ccccc2C1=O [compound 17, 5-chloro-indirubin, reference compound] | = | 0.28 |
| CN1C(=O)/C(=C2\Nc3ccccc3C2=O)c2ccccc21 [12d, 1-Methylindirubin] | > | 100 |

====

Some compounds, each annotated with its measured pIC50.
# TARGET OF ASSAY: CDK5/p25 (Homo sapiens, UniProt Q00535)
# Sequence (Q00535 whole entry, species assumed): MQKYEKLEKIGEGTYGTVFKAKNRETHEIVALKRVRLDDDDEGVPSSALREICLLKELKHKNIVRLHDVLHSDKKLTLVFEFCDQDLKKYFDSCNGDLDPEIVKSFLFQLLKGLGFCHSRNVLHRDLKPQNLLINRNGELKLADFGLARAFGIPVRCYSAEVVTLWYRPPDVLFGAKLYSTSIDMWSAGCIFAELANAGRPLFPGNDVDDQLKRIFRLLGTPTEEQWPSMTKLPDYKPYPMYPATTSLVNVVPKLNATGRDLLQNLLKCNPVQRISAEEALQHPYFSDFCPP
# Sequence (Q15078 99-307 partner limits assumed, species assumed): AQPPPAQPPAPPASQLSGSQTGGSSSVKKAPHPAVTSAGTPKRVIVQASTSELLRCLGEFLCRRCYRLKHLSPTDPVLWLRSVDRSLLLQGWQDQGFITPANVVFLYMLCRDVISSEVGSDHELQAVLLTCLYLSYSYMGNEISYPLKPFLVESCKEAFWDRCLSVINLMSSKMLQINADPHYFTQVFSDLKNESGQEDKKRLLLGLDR
# PROTOCOL TEXT: CDK5/p25 kinase assay (histone H1, 15 μM ATP)
# Type: biochemical, mammalian
# CONDITION SUMMARY: Table 5; read-out: IC50 CDK5/p25
pIC50: −log10 of the molar value.
READOUT TYPE: pIC50

| COMPOUND | TARGET OF ASSAY | ENDPOINT RESULT |
| --- | --- | --- |
| CN1C(=O)C(=C2Nc3ccccc3C2=NO)c2ccccc21 [13d, 1-Methylindirubin-3′-oxime] | CDK5/p25 (Homo sapiens, UniProt Q00535) | < 4.00 |
| O=C1Nc2cc(Br)ccc2/C1=C1/Nc2cc(Br)ccc2C1=O [12b, 6,6′-Dibromoindirubin] | CDK5/p25 (Homo sapiens, UniProt Q00535) | < 4.00 |
| O=C1Nc2ccccc2/C1=C1/Nc2cc(Br)ccc2C1=O [12a, 6′-Bromoindirubin] | CDK5/p25 (Homo sapiens, UniProt Q00535) | < 4.00 |
| O=C1Nc2cc(Br)c([N+](=O)[O-])cc2C1=C1Nc2ccccc2C1=O | CDK5/p25 (Homo sapiens, UniProt Q00535) | < 4.00 |

====

# TARGET OF ASSAY: GSK-3α/β
# PROTOCOL TEXT: GSK-3α/β kinase assay (GS-1 peptide, 15 μM ATP)
# Type: biochemical, porcine
# CONDITION SUMMARY: Table 7; GSK-3; read-out: IC50exp
IC50: recorded values
READOUT TYPE: IC50

| COMPOUND | ENDPOINT RESULT |
| --- | --- |
| O=C1Nc2ccc(F)cc2C1=C1Nc2ccccc2C1=O [5-Fluoroindirubin, reference compound] | 78 nM |
| O=C1Nc2cc(Br)ccc2C1=C1Nc2cc(Br)ccc2C1=NO [13b, 6,6′-dibromo-indirubin-3′-oxime] | 120 nM |
| Cc1ccc2c(c1)/C(=C1/Nc3ccccc3C1=O)C(=O)N2 [compound 15, 5-methyl-indirubin, reference compound] | 62 nM |
| O=C1Nc2cc(Br)c([N+](=O)[O-])cc2C1=C1Nc2ccccc2C1=O | 100 nM |
